Test system: Saccharomyces cerevisiae
Experiment: protein stability index of tFT-peptide fusion (C-terminal peptide) (PSI (0-1 scale)); higher = more stable (slower turnover)
Settings: genetic background: wild type; temperature: 30 C
Value Kind: protein stability index
Answers are plain numbers.

Worked examples, 5 sequences total:
Sequence Content: CSFSRRLCHRPT
Test System: Saccharomyces cerevisiae
protein stability index: 0.701
//
Sequence Content: YGGGVWRGVALG
Test System: Saccharomyces cerevisiae
protein stability index: 0.691
//
Sequence Content: GLGRRRGVGGVR
Test System: Saccharomyces cerevisiae
protein stability index: 0.709
//
Sequence Content: GGGWCESRGDGA
Test System: Saccharomyces cerevisiae
protein stability index: 0.655
//
Sequence Content: AVRGYGCGGGTG
Test System: Saccharomyces cerevisiae
protein stability index: 0.697

Provide protein stability index for all items below, preserving their order.
1. WFVCVARCPFPF
2. PPPAPPTPPSPP
3. AGFCRVFSYDFV
4. DREVGQGRLTEE
5. FLDPFLTRRCVF
6. LLAPPLPPPRHG
7. GRTKFIPTPSTY

Outgoing:
[0.623, 0.628, 0.708, 0.636, 0.694, 0.674, 0.712]

Provide protein stability index for all items below, preserving their order.
1. KIRIWWIEEKTI
2. PDSIVACGPVGR
3. AQPFATTGGGLV
4. GLAPYRPVITFS
5. FCYWCLGWGVGL
6. SPIIVCLFDLGF
7. YLRGRCSSLSLR

Outgoing:
1: 0.607; 2: 0.702; 3: 0.69; 4: 0.675; 5: 0.692; 6: 0.654; 7: 0.698

Provide protein stability index for all items below, preserving their order.
1. PAASPVDEKVRL
2. LDPPCPTARLPH

Outgoing:
[0.633, 0.61]

----------
Tested on: Saccharomyces cerevisiae
Assay: protein stability index of tFT-peptide fusion (C-terminal peptide) (PSI (0-1 scale)); higher = more stable (slower turnover)
Settings: genetic background: das1 deletion; temperature: 30 C
protein stability index below 0.7 gives f; protein stability index at or above it gives t.

Incoming: Determine whether measured protein stability index meets or exceeds 0.7 for LEKHTASDTSCI [YAL066W C-terminal 12 aa]
Outgoing: t

----------
System: Saccharomyces cerevisiae
Assay: protein stability index of tFT-peptide fusion in deletion strain of DAS1 (PSI (0-1 scale)); higher = more stable (slower turnover)
Kindly state protein stability index for each of the entries shown.
Give bare numbers.

Provide protein stability index for all items below, preserving their order.
1. FSMRWTFRYMVN
2. DKILRQKMNHQN
3. FSMRWTFRYWVNI
4. RMIQPLPVQFLN

Outgoing:
0.577
0.672
0.527
0.571

Provide protein stability index for all items below, preserving their order.
1. VRGAVGGWRLVGR
2. LKILRQKMNKQN
3. VRGAVGQWRLVG
4. PSLAASFWKVVG
5. KKHKKGQKGKIN
6. PSLAFSFWRVVG
7. PDKRNHLIKLLNH
8. FSMRWTFRYWVE

Outgoing:
[0.674, 0.656, 0.663, 0.674, 0.584, 0.676, 0.669, 0.473]

----------
System: Saccharomyces cerevisiae
Test: protein stability index of tFT-peptide fusion (C-terminal peptide) (PSI (0-1 scale)); higher = more stable (slower turnover)
Settings: genetic background: wild type; temperature: 30 C
Kindly state protein stability index for each of the entries shown.
Numbers only.

Sequence Content: IASSRPHSNQRE
Value Kind: protein stability index
Measurement: 0.692
--
Sequence Content: GGGMCGRSGGRR
Value Kind: protein stability index
Measurement: 0.706
--
Sequence Content: KTEKTKIKKKRM
Value Kind: protein stability index
Measurement: 0.684
--
Sequence Content: PPPPHPPPPLFP
Value Kind: protein stability index
Measurement: 0.714

Provide protein stability index for all items below, preserving their order.
1. AQCAFIKAGVTW
2. LRNCSVSGSIEW
3. YNANEKTINKDK

Outgoing:
1: 0.686; 2: 0.699; 3: 0.693

----------
System: Saccharomyces cerevisiae
Assay: protein stability index of tFT-peptide fusion (C-terminal peptide) (PSI (0-1 scale)); higher = more stable (slower turnover)
Conditions: genetic background: wild type; temperature: 30 C
Kindly state protein stability index for each of the entries shown.

Sequence Content: LGVVGYGLGGGK
Test System: Saccharomyces cerevisiae
protein stability index: 0.707
//
Sequence Content: GGCGGRGGVVVR
Test System: Saccharomyces cerevisiae
protein stability index: 0.687

Could you now look at the following sequence, please?
Incoming: Complete the entry with protein stability index for GGGGFQVAVGCR
Outgoing: 0.714

----------
Tested on: Saccharomyces cerevisiae
Assay: protein stability index of tFT-peptide fusion in wild type (PSI (0-1 scale)); higher = more stable (slower turnover)
Details: genetic background: wild type
Kindly state protein stability index for each of the entries shown.
Answers are plain numbers.

Sequence Content: CLVSLPILLFFI
protein stability index: 0.197
//
Sequence Content: RSLRVLLPLYFRN
protein stability index: 0.204

Could you now look at the following sequence, please?
Incoming: Tell me protein stability index of GLYMCQVGCWFR when tested on Saccharomyces cerevisiae.
Outgoing: 0.308

----------
Kindly state protein stability index for each of the entries shown.
Tested on: Saccharomyces cerevisiae
Assay: protein stability index of tFT-peptide fusion (C-terminal peptide) (PSI (0-1 scale)); higher = more stable (slower turnover)
Conditions: genetic background: das1 deletion; temperature: 30 C
Answers are plain numbers.

Worked examples, 10 sequences total:
Sequence Content: EEIVGRHSDSAT [YAP6 C-terminal 12 aa]
protein stability index: 0.693
--
Sequence Content: NVGKQLSNEIIY [PRP28 C-terminal 12 aa]
protein stability index: 0.695
--
Sequence Content: QSKNIEIFSQIK [YGR067C C-terminal 12 aa]
protein stability index: 0.71
--
Sequence Content: PSMTTTNFSAFM [ECM22 C-terminal 12 aa]
protein stability index: 0.698
--
Sequence Content: KNLQNELEKNNA [RTN1 C-terminal 12 aa]
protein stability index: 0.689
--
Sequence Content: SLFPRDPKRLRP [DPS1 C-terminal 12 aa]
protein stability index: 0.713
--
Sequence Content: KHKQYFWKRPTK [PLM2 C-terminal 12 aa]
protein stability index: 0.714
--
Sequence Content: FKIFAKLFCTRK [HLR1 C-terminal 12 aa]
protein stability index: 0.711
--
Sequence Content: PADIATDHDITM [TAF8 C-terminal 12 aa]
protein stability index: 0.717
--
Sequence Content: ISVSKKTLKSNW [HOP1 C-terminal 12 aa]
protein stability index: 0.698

Provide protein stability index for all items below, preserving their order.
1. EKEFTGNSQSEK [NMA111 C-terminal 12 aa]
2. GLLLPLCHRKRS [YOR012W C-terminal 12 aa]
3. ELDEIAASLENL [TPM1 C-terminal 12 aa]
4. DISDSEGGLFEC [PCI8 C-terminal 12 aa]

Outgoing:
1. 0.686
2. 0.706
3. 0.709
4. 0.69

Provide protein stability index for all items below, preserving their order.
1. PLPDLDEDDGEE [DOM34 C-terminal 12 aa]
2. RAGSHSVGLLPM [UIP5 C-terminal 12 aa]
3. STSDFELDDLED [YPL264C C-terminal 12 aa]
4. AESPEEADVEMS [PUP2 C-terminal 12 aa]
5. KFSSTSRYMQYN [RPT1 C-terminal 12 aa]

Outgoing:
1. 0.686
2. 0.698
3. 0.696
4. 0.679
5. 0.705

Provide protein stability index for all items below, preserving their order.
1. APAEQTQGEPTK [BMH2 C-terminal 12 aa]
2. SDEEPSSKKRKV [VPS75 C-terminal 12 aa]
3. RGDDGESYAYLA [CDC53 C-terminal 12 aa]

Outgoing:
1. 0.71
2. 0.703
3. 0.693

Provide protein stability index for all items below, preserving their order.
1. HAGTRPVLLLQK [YKL053W C-terminal 12 aa]
2. FKKSVDQMNAST [PSY2 C-terminal 12 aa]
3. SPAHSFEKIQKI [ERF2 C-terminal 12 aa]
4. FDTSAQSDRKHS [DCV1 C-terminal 12 aa]
5. ECRARKASSNRS [YGR109W-A C-terminal 12 aa]
6. ARMLARECRRHM [CDC23 C-terminal 12 aa]
7. FLVNTTNKKESD [YIL092W C-terminal 12 aa]
8. KWGLSKKDGRQA [SLY41 C-terminal 12 aa]

Outgoing:
0.694
0.692
0.692
0.719
0.681
0.702
0.686
0.699

Provide protein stability index for all items below, preserving their order.
1. HKQCDSLLDRLK [PTA1 C-terminal 12 aa]
2. TLSMYPRRRFYH [GPG1 C-terminal 12 aa]
3. PIKIIYNNKCPS [YLL006W-A C-terminal 12 aa]
4. GYAKTWSIASAN [CTT1 C-terminal 12 aa]

Outgoing:
1: 0.698; 2: 0.709; 3: 0.709; 4: 0.714
